Recorded pKi for compounds tested on UniProt P00747, drawn from a number of studies.
Numbers only, as −log10 of the molar value.

Use these answered entries as a reference point.
// query pKi value for entry CCC1CNCc2ccc(NC(=O)c3ccc4cc(C(=N)N)ccc4c3)cc21 (configuration not stated)
5.95

`N=C(N)c1cccc(C[C@H](NS(=O)(=O)c2cccc(NC(=O)CCN)c2)C(=O)N2CCC(CCN)CC2)c1` ?
5.62

`N=C(N)c1ccc(OCCCCOc2ccc(-c3nc4ccc(C(=N)N)cc4[nH]3)cc2)cc1` ?
5.09

COc1ccc(-c2cccc(S(=O)(=O)NC(Cc3cccc(C(=N)N)c3)C(=O)N3CCC(CCN)CC3)c2)cc1 (racemic) ?
6.92

N=C(N)c1cccc(CC(NS(=O)(=O)c2cccc(-c3ccccc3Cl)c2)C(=O)N2CCC(CCN)CC2)c1 (racemic) ?
7.07

`N=C(N)c1ccc(O)c(CN2CC[C@H](NS(=O)(=O)c3cc4ncccc4s3)C2=O)c1` ?
5.64

`N=C(N)c1ccc2c(ccn2Cc2cccc(N)c2)c1` ?
3.79

`N=C(N)NCCC1CCN(C(=O)[C@H](Cc2cccc(C(=N)N)c2)NS(=O)(=O)c2ccc(C3CCCCC3)cc2)CC1` ?
5.70

Lab note: each compound below needs its pKi filled in.
1. N=C(N)c1ccc(Oc2cc(Oc3ccc(C(=N)N)cc3)cc(C(=O)N3CCc4ccccc4C3)c2)cc1
2. COC(=O)Nc1ccc(-c2ccnc([C@H](Cc3ccccc3)NC(=O)/C=C/c3cc(Cl)ccc3-n3cnnn3)c2)cc1
3. N=C(N)c1ccc(OCCOc2ccc(-c3nc4ccc(C(=N)N)cc4[nH]3)cc2)cc1
4. CC(C)Oc1cccc(NC(=O)c2ccc3cc(C(=N)N)ccc3c2)c1
5. N=C(N)NCCC1CCN(C(=O)[C@H](Cc2cccc(C(=N)N)c2)NS(=O)(=O)c2ccc(Oc3ccccc3)cc2)CC1
6. N=C(N)c1ccc2c(C=O)c[nH]c2c1
7. N=C(N)c1cccc(C[C@H](NS(=O)(=O)c2cccc3ccccc23)C(=O)N2CCC(CCN=C(N)N)CC2)c1

1. 5.41
2. 4.90
3. 5.41
4. 6.26
5. 6.12
6. 4.37
7. 5.77

Lab note: each compound below needs its pKi filled in.
1. N=C(N)c1ccc(N)c(CN2CC[C@H](NS(=O)(=O)c3cc4nc(Cl)ccc4s3)C2=O)c1
2. N=C(N)c1ccc2cccc(N)c2c1
3. N=C(N)c1ccc(CCNC(=O)N2CCN(C(=O)O[C@H]3CCC[C@@H](OC(=O)N4CCN(C(=O)NCCc5ccc(C(=N)N)cc5)CC4)CCC3)CC2)cc1
4. N=C(N)c1ccc(CNC(=O)[C@@H]2Cc3ccc(cc3)NC(=O)CN3CCCN(CC3)CC(=O)Nc3ccc(cc3)C[C@@H](NS(=O)(=O)Cc3ccccc3)C(=O)N2)cc1
5. NC[C@H]1CC[C@H](C(=O)N[C@@H](Cc2ccccc2)c2nc(-c3ccc4c(N)n[nH]c4c3)c(Cl)[nH]2)CC1
6. CC(C)c1cc(C(C)C)c(S(=O)(=O)N[C@@H](Cc2cccc(C(=N)N)c2)C(=O)N2CCCN(C(=O)CCN=C(N)N)CC2)c(C(C)C)c1

[5.82, 5.18, 4.22, 9.24, 5.08, 6.36]

---

Recorded Ki for compounds tested on Plasminogen (Homo sapiens, UniProt P00747), drawn from a number of studies.
Answers are plain numbers, in µM.

Use these answered entries as a reference point.
// query Ki value for entry N=C(N)N1CCc2ccc(OC(C(=O)O)c3ccc(OC4CCOCC4)cc3)cc2C1 (centres undefined)
25

`NC(N)=Nc1nccc2ccc(S(=O)(=O)Nc3ccccc3)cc12` ?
3.2

CC1CCC(C(=O)Nc2cc(Oc3ccc(C(=N)N)cc3)cc(Oc3ccc(C(=N)N)cc3)c2)CC1 (centres undefined) ?
1.2

`N=C(N)NCCC(=O)Nc1cccc(S(=O)(=O)N[C@@H](Cc2cccc(C(=N)N)c2)C(=O)N2CCC(CCNC(=N)N)CC2)c1` ?
1.8

`N=C(N)c1ccc2cc(C(=O)Nc3cccc(OC4CCCC4)c3)ccc2c1` ?
0.498

Lab note: each compound below needs its Ki filled in.
1. COc1ccc2ccc(S(=O)(=O)N(C)[C@H]3CCN(Cc4csc(C(=N)N)c4)C3=O)cc2c1
2. N=C(N)c1cccc(C[C@H](NS(=O)(=O)c2cccc(NC(=O)CCN)c2)C(=O)N2CCC(CCCC(N)=O)CC2)c1
3. NCCCC[C@H](NC(=O)CN(C(=O)CCc1ccccc1)C1CC1)B(O)O
4. N=C(N)SCc1ccc(CS(=O)(=O)Oc2ccc([N+](=O)[O-])cc2)cc1
5. N=C(N)c1cccc(C[C@H](NS(=O)(=O)c2cccc(NC(=O)CCN)c2)C(=O)N2CCC(CCCN=C(N)N)CC2)c1

1. 4.4
2. 2.9
3. 0.16
4. 1150
5. 2.8
